// provenance: patent US20250270343A1

Entries annotated with measured PDL1 (FoB)
- experimental.system: T1, full-length untagged human GPNMB expressed on cells (human, UniProt Q14956 23-572)
- T1 sequence: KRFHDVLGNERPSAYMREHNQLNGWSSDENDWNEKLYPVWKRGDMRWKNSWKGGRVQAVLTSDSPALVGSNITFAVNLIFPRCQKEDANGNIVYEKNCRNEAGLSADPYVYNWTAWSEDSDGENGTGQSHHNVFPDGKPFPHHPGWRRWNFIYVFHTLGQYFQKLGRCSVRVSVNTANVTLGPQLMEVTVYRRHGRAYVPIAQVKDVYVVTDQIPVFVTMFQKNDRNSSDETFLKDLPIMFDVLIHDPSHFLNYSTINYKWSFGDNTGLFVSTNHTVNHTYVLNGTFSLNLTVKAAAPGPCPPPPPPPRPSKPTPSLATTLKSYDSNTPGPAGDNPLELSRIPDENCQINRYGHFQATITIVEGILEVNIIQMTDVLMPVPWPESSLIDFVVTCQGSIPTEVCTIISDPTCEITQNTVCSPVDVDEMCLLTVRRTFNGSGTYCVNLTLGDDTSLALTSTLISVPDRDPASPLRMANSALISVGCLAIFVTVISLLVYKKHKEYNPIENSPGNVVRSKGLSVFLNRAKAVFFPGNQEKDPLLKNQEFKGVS
- protocol.summary: cell-based or functional assay
Give a bare numeral; the unit FoB is implied.

anti-GPNMB antibody GPN-22 (antibody, human IgG1, V domains shown, chimeric) VH: QVQLQQPGAERVKPGASVKMSCKASGYTFTSYWITWVKQRPGQGLEWIGDIFPGSGSTNYHEKFKSKATLTVDTSSSTAYMQLSSLTSEDSAVYYCSRGYFGSSFSDYWGQGTSVTVSS VL: DIQMTQSPSSLSASLGERVSLTCRTSQEISGYLSWLQQKPDGTIKRLIYSTSTLDSGVPKRFSGSRSGSDYSLTISSLESEDFADYYCLQYASSPPTFGSGTKLEIK ... 1.76

Challenge: Quote PDL1 (FoB) reported for anti-GPNMB antibody GPN-08 (antibody, human IgG1, V domains shown, chimeric) VH: QVQLQQPGAELVKPGASVKLSCRASGYTFTSYWLHWVKQRPGQGLEWIGEINPSDGRTNYIEKVKTKATLTVDKSSSTAYMQLSSLTSEDSAVYYCARSGGNYAWFAYWGQGTLVTVSA VL: DIVMTQSHKFMSTSVGDRVSITCKASQDVSPSVAWYQQRPGQSPKLLIYSASYRYTGVPDRFTGSGSGTDFTFTISSVQAEDLAVYYCQQHYSIPLTFGAGTKLELK please.
Response given: 1.59
